Sourced from patent US9309222B2

biological target: human RORγt ligand binding domain (RORγt LBD) (Homo sapiens); construct: His-tag (N); TurboTEV protease cleavage site (ENLYFQG) (N); experiment: RORγt ThermoFluor assay (thermal shift, ligand binding affinity); conditions: estimated from concentration response of thermal shift
reportedEndpoint: Kd (µM)

In the examples that follow, each entry is paired with its recorded Kd.
>>> observedmeasurement("Cn1cncc1C(O)(c1ccc(Cl)cc1)c1ccc2nc(Cl)c(-c3ccccc3Cl)c(Cl)c2c1 (single isomer, unassigned) [Example 153d]")
3.5
>>> observedmeasurement("Cn1cncc1C(O)(c1ccc(Cl)cc1)c1ccc2nc(Cl)c(-c3ccccc3Cl)c(Cl)c2c1 (racemic) [Example 153a]")
0.071

I: CC(C)Oc1c(-c2ccccc2)c(Cl)nc2ccc(C(O)(c3ccncc3)c3cncn3C)cc12 (stereo not shown)
II: CCOc1nc2ccc(C(O)(c3ccncc3)c3cncn3C)cc2c(Cl)c1-c1ccccc1 (stereo not shown)
When the recorded Kd values are compared, which is smaller: that of I or that of II ? Respond using the label that marks the chosen record.
II

----------
target: human RORγt LBD (Homo sapiens); construct: expressed in transfected cells; experiment: RORγt reporter assay (GAL4-RORγt LBD luciferase in HEK293T cells); format: cell-based; settings: HEK-293T, read-out: RORγt reporter Assay, % inhibition @ 6 μM, HEK293T cells, 6 μM compound
reportedEndpoint: inhibition at 6 µM (%)

>>> observedmeasurement("COCOc1ccc(C(O)(c2cccnc2)c2ccc3nc(Cl)c(-c4ccccc4)c(Cl)c3c2)cc1 (stereo not shown)")
89
>>> observedmeasurement("Cc1cc(C(O)(c2ccnc(C(F)(F)F)c2)c2cncn2C)cc2c(Cl)c(-c3ccccc3)c(Cl)nc12 (stereo not shown)")
97
>>> observedmeasurement("CCN(CC)c1nc2ccc(C(O)(c3ccncc3)c3cncn3C)cc2c(OC)c1-c1ccccc1 (stereo not shown)")
101
>>> observedmeasurement("OC(c1ccc(Cl)nc1)(c1cccc(Cl)c1)c1ccc2ncc(-c3ccccc3)c(Cl)c2c1 (stereo not shown)")
86

----------
Target: human RORγt LBD (Homo sapiens)
Construct: expressed in transfected cells
Sequence (P51449 258-518): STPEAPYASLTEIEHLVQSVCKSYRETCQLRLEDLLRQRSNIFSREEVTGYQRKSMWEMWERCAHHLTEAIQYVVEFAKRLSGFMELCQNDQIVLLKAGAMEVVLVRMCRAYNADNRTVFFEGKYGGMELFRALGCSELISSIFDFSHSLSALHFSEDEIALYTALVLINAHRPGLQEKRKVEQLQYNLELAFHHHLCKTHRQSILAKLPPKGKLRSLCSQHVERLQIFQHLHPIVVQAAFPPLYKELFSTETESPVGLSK
Experiment: RORγt reporter assay (GAL4-RORγt LBD luciferase in HEK293T cells)
Assay type: cell-based
Details: HEK-293T, read-out: RORγt reporter Assay, % inhibition @ 6 μM, HEK293T cells, 6 μM compound
reportedEndpoint: inhibition at 6 µM (%)

>>> observedmeasurement("Cn1cncc1C(O)(c1ccncc1)c1ccc2nc(C(F)(F)F)c(-c3ccccc3)c(C(F)(F)F)c2c1 (stereo not shown) [Example 164]")
98
>>> observedmeasurement("COc1nc2ccc(C(O)(c3cccnc3)c3cccc(Cl)c3)cc2c(OC)c1-c1ccccc1 (stereo not shown) [Example 79]")
73
>>> observedmeasurement("CC(C)Oc1nc2ccc(C(O)(c3cccnc3)c3cccc(Cl)c3)cc2c(Cl)c1-c1ccccc1 (stereo not shown) [Example 84]")
73
>>> observedmeasurement("N#Cc1nc2ccc(C(O)(c3ccc(C(F)(F)F)nc3)c3cccc(Cl)c3)cc2c(C#N)c1-c1ccccc1 (stereo not shown) [Example 114]")
104
>>> observedmeasurement("Cn1cncc1C(O)(c1ccncc1)c1cc(F)c2nc(Cl)c(-c3ccccc3)c(Cl)c2c1 (stereo not shown) [Example 155]")
96
>>> observedmeasurement("COc1ccc(C(O)(c2ccc3nc(Cl)c(-c4ccccc4)c(Cl)c3c2)c2c(C)noc2C)cn1 (stereo not shown) [Example 129]")
100
>>> observedmeasurement("COc1ccc(C(O)(c2ccc3nc(Cl)c(-c4ccccc4)c(Cl)c3c2)c2cncn2C)cn1 (stereo not shown) [Example 10]")
98
